# TGT: CDK5/p35(h) (Homo sapiens, UniProt Q00535)
# Sequence (Q00535 whole entry): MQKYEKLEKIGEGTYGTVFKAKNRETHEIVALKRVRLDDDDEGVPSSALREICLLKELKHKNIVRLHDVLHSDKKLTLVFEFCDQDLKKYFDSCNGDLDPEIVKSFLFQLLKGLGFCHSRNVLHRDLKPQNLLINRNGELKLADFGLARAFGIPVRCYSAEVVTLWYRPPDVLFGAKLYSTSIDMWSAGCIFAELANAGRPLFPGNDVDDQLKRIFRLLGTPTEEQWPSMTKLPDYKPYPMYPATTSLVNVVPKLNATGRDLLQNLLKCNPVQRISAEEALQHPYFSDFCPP
# Sequence (Q15078 whole entry partner): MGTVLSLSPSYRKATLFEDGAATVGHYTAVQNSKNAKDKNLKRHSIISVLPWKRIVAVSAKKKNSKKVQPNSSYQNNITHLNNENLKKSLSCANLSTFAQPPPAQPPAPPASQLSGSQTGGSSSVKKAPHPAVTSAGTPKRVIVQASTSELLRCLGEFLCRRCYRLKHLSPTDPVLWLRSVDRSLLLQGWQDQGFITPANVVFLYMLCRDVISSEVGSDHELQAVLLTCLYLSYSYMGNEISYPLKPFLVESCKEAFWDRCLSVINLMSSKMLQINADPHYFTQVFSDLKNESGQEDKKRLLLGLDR
# MEASUREMENT NOTES: Protein kinase selectivity panel
# Assay type: biochemical
# EXPERIMENTAL CONDITIONS: 1.0 μM compound, 10 μM ATP
MEASUREMENT LABEL: Activity at Protein Kinase Assays (% of control), CDK5/p35(h)

[[record]]
query_smiles = "O=C1NC(=O)C2=C1c1cn(c3ccccc13)CCCc1ccc(c(N3CCCC3)n1)CCCn1cc2c2ccccc21"
reported_measurement = "104 % of control"

[[record]]
query_smiles = "CN(C)c1cc2cc(n1)CCCn1cc(c3ccccc31)C1=C(C(=O)NC1=O)c1cn(c3ccccc13)CCC2"
reported_measurement = "105 % of control"

[[record]]
query_smiles = "CN(C)c1nc2ccc1CCCCn1cc(c3ccccc31)C1=C(C(=O)NC1=O)c1cn(c3ccccc13)CCC2"
reported_measurement = "99 % of control"

[[record]]
query_smiles = "O=C1NC(=O)C2=C1c1cn(c3ccccc13)CCCc1cc(nc(N3CCCC3)c1)CCCn1cc2c2ccccc21"
reported_measurement = "99 % of control"


---

# TGT: NEK2(h) (Homo sapiens, UniProt P51955)
# Sequence (P51955 whole entry): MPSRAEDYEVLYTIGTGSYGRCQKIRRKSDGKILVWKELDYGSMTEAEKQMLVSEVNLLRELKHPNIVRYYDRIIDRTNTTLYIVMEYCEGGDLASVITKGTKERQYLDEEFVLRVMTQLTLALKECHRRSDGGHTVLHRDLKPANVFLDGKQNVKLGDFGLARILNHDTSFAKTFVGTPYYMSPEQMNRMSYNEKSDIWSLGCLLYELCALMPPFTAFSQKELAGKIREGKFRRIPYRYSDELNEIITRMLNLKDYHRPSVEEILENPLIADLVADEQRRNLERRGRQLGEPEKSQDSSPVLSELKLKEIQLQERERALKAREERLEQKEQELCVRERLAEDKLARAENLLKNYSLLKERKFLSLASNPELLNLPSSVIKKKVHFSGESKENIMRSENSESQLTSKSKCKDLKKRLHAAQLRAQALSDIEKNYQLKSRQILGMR
# MEASUREMENT NOTES: Protein kinase selectivity panel
# Type: biochemical
# EXPERIMENTAL CONDITIONS: 1.0 μM compound, 10 μM ATP
# Method: Protein kinase selectivity assays were performed as described in the scientific literature (Davies, S. P., et al., Biochem. J. 2000, 351, 95-105). Briefly, protein kinases were assayed for their ability to phosphorylate the appropriate peptide/protein substrates in the presence of 1.0 μM compound. Assays were done using 10 μM ATP and were linear with respect to time. […]
Reported Activity at Protein Kinase Assays (% of control), NEK2(h) is given for each of the following compounds.
MEASUREMENT LABEL: Activity at Protein Kinase Assays (% of control), NEK2(h)

[[record]]
compound = "O=C1NC(=O)C2=C1c1cn(c3ccccc13)CCCc1ccc(c(N3CCCC3)n1)CCCn1cc2c2ccccc21 [Cpd 7]"
reported_measurement = "99 % of control"

[[record]]
compound = "CN(C)c1nc2ccc1CCCCn1cc(c3ccccc31)C1=C(C(=O)NC1=O)c1cn(c3ccccc13)CCC2 [Cpd 1]"
reported_measurement = "104 % of control"

[[record]]
compound = "O=C1NC(=O)C2=C1c1cn(c3ccccc13)CCCc1cc(nc(N3CCCC3)c1)CCCn1cc2c2ccccc21 [Cpd 6]"
reported_measurement = "105 % of control"

[[record]]
compound = "CN(C)c1cc2cc(n1)CCCn1cc(c3ccccc31)C1=C(C(=O)NC1=O)c1cn(c3ccccc13)CCC2 [Cpd 2]"
reported_measurement = "102 % of control"


---

# TGT: Axl(h) (Homo sapiens, UniProt P30530)
# Sequence (P30530 26-894): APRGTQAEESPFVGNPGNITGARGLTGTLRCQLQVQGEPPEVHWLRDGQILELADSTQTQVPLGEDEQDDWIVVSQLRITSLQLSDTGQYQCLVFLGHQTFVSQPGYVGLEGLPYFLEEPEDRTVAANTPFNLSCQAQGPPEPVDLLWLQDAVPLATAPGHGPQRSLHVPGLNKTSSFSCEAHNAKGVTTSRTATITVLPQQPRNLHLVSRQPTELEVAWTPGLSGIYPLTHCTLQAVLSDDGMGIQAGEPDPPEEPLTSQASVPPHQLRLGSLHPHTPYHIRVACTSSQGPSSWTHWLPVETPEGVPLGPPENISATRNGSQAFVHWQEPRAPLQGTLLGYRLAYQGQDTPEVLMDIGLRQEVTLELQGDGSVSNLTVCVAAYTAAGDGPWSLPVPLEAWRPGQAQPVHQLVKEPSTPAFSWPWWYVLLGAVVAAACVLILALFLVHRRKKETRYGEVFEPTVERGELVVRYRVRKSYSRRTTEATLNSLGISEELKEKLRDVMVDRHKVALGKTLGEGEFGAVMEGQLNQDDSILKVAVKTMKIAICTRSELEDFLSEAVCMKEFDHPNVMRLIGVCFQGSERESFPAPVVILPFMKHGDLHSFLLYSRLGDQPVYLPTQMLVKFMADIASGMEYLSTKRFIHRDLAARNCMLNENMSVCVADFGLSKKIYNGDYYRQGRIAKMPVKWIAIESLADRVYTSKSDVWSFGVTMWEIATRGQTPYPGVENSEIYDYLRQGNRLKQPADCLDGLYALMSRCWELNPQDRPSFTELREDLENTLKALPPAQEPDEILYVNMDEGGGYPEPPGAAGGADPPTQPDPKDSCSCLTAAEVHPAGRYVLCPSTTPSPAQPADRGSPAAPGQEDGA
# MEASUREMENT NOTES: Protein kinase selectivity panel
# Type: biochemical
# EXPERIMENTAL CONDITIONS: 1.0 μM compound, 10 μM ATP
MEASUREMENT LABEL: Activity at Protein Kinase Assays (% of control), Axl(h)

[[record]]
query_smiles = "O=C1NC(=O)C2=C1c1cn(c3ccccc13)CCCc1cc(nc(N3CCCC3)c1)CCCn1cc2c2ccccc21"
reported_measurement = "106 % of control"

[[record]]
query_smiles = "CN(C)c1cc2cc(n1)CCCn1cc(c3ccccc31)C1=C(C(=O)NC1=O)c1cn(c3ccccc13)CCC2"
reported_measurement = "104 % of control"

[[record]]
query_smiles = "O=C1NC(=O)C2=C1c1cn(c3ccccc13)CCCc1ccc(c(N3CCCC3)n1)CCCn1cc2c2ccccc21"
reported_measurement = "100 % of control"

[[record]]
query_smiles = "CN(C)c1nc2ccc1CCCCn1cc(c3ccccc31)C1=C(C(=O)NC1=O)c1cn(c3ccccc13)CCC2"
reported_measurement = "97 % of control"


---

# TGT: ROCK-II(r) (Rattus norvegicus, UniProt Q62868)
# MEASUREMENT NOTES: Protein kinase selectivity panel
# Assay type: biochemical
# EXPERIMENTAL CONDITIONS: 1.0 μM compound, 10 μM ATP
MEASUREMENT LABEL: Activity at Protein Kinase Assays (% of control), ROCK-II(r)

[[record]]
query_smiles = "O=C1NC(=O)C2=C1c1cn(c3ccccc13)CCCc1cc(nc(N3CCCC3)c1)CCCn1cc2c2ccccc21"
tgt = "ROCK-II(r) (Rattus norvegicus, UniProt Q62868)"
reported_measurement = "83 % of control"

[[record]]
query_smiles = "CN(C)c1cc2cc(n1)CCCn1cc(c3ccccc31)C1=C(C(=O)NC1=O)c1cn(c3ccccc13)CCC2"
tgt = "ROCK-II(r) (Rattus norvegicus, UniProt Q62868)"
reported_measurement = "92 % of control"

[[record]]
query_smiles = "CN(C)c1nc2ccc1CCCCn1cc(c3ccccc31)C1=C(C(=O)NC1=O)c1cn(c3ccccc13)CCC2"
tgt = "ROCK-II(r) (Rattus norvegicus, UniProt Q62868)"
reported_measurement = "101 % of control"

[[record]]
query_smiles = "O=C1NC(=O)C2=C1c1cn(c3ccccc13)CCCc1ccc(c(N3CCCC3)n1)CCCn1cc2c2ccccc21"
tgt = "ROCK-II(r) (Rattus norvegicus, UniProt Q62868)"
reported_measurement = "91 % of control"


---

# TGT: Met(h) (Homo sapiens, UniProt P08581)
# Sequence (P08581 25-1390): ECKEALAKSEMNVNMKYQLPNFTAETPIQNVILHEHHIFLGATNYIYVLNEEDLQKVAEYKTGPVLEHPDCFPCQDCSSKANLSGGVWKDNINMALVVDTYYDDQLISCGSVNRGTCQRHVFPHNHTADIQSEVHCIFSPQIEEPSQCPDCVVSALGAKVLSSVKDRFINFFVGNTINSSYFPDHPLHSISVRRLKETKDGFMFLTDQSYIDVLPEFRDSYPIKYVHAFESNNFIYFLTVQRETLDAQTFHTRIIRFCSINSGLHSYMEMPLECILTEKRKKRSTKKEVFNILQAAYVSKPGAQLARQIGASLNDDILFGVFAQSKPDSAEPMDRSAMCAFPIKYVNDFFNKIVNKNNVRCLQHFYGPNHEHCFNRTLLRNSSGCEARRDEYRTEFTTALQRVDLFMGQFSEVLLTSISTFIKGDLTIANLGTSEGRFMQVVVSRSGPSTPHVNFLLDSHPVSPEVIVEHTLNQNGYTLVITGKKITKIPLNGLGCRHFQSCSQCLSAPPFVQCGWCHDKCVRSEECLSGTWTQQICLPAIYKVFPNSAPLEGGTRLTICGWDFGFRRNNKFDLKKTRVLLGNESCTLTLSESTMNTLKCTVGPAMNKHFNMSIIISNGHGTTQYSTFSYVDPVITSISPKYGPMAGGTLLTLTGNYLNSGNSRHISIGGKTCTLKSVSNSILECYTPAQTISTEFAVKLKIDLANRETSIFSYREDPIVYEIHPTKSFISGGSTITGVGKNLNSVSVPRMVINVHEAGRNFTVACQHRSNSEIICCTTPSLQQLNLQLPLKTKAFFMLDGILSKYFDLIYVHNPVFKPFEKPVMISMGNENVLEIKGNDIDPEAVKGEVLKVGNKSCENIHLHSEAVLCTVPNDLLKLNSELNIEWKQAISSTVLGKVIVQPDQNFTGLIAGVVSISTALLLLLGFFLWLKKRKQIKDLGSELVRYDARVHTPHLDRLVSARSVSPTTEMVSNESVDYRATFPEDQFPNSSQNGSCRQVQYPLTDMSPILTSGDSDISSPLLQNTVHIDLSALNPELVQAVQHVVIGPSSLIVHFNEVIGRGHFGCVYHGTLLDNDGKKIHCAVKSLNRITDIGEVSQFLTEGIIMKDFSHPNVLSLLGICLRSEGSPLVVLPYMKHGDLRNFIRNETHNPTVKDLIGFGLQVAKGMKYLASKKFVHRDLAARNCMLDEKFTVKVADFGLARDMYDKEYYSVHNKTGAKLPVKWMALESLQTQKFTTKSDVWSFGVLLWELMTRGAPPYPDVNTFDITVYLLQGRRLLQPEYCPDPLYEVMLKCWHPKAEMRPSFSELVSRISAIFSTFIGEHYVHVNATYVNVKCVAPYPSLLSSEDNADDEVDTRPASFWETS
# MEASUREMENT NOTES: Protein kinase selectivity panel
# Type: biochemical
# EXPERIMENTAL CONDITIONS: 1.0 μM compound, 10 μM ATP
MEASUREMENT LABEL: Activity at Protein Kinase Assays (% of control), Met(h)

[[record]]
query_smiles = "CN(C)c1nc2ccc1CCCCn1cc(c3ccccc31)C1=C(C(=O)NC1=O)c1cn(c3ccccc13)CCC2"
tgt = "Met(h) (Homo sapiens, UniProt P08581)"
reported_measurement = "121 % of control"

[[record]]
query_smiles = "O=C1NC(=O)C2=C1c1cn(c3ccccc13)CCCc1cc(nc(N3CCCC3)c1)CCCn1cc2c2ccccc21"
tgt = "Met(h) (Homo sapiens, UniProt P08581)"
reported_measurement = "129 % of control"

[[record]]
query_smiles = "CN(C)c1cc2cc(n1)CCCn1cc(c3ccccc31)C1=C(C(=O)NC1=O)c1cn(c3ccccc13)CCC2"
tgt = "Met(h) (Homo sapiens, UniProt P08581)"
reported_measurement = "132 % of control"

[[record]]
query_smiles = "O=C1NC(=O)C2=C1c1cn(c3ccccc13)CCCc1ccc(c(N3CCCC3)n1)CCCn1cc2c2ccccc21"
tgt = "Met(h) (Homo sapiens, UniProt P08581)"
reported_measurement = "132 % of control"


---

# TGT: CDK1/cyclinB(h) (Homo sapiens, UniProt P06493)
# Sequence (P06493 whole entry): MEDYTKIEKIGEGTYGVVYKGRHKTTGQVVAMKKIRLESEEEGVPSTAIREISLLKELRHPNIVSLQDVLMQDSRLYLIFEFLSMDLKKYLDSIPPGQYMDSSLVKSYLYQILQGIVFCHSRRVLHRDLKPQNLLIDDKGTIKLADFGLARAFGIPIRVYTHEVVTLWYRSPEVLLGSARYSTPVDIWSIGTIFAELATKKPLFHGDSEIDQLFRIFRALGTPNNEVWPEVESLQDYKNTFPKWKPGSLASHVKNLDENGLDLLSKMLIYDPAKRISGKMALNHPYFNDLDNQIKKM
# Sequence (P14635 whole entry partner): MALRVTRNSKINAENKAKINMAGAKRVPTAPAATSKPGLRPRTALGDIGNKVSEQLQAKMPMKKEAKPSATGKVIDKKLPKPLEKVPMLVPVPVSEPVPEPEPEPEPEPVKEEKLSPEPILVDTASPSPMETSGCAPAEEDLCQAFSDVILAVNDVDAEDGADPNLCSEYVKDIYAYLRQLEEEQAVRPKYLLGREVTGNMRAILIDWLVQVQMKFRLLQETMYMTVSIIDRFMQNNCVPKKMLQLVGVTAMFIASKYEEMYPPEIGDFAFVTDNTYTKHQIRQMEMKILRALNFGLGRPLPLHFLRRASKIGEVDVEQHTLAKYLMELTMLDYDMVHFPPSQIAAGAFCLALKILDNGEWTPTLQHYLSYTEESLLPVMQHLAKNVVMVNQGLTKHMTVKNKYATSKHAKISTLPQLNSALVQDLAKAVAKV
# MEASUREMENT NOTES: Protein kinase selectivity panel
# Assay type: biochemical
# EXPERIMENTAL CONDITIONS: 1.0 μM compound, 10 μM ATP
Reported Activity at Protein Kinase Assays (% of control), CDK1/cyclinB(h) is given for each of the following molecules.
MEASUREMENT LABEL: Activity at Protein Kinase Assays (% of control), CDK1/cyclinB(h)

[[record]]
query_smiles = "O=C1NC(=O)C2=C1c1cn(c3ccccc13)CCCc1ccc(c(N3CCCC3)n1)CCCn1cc2c2ccccc21"
reported_measurement = "98 % of control"

[[record]]
query_smiles = "O=C1NC(=O)C2=C1c1cn(c3ccccc13)CCCc1cc(nc(N3CCCC3)c1)CCCn1cc2c2ccccc21"
reported_measurement = "80 % of control"

[[record]]
query_smiles = "CN(C)c1nc2ccc1CCCCn1cc(c3ccccc31)C1=C(C(=O)NC1=O)c1cn(c3ccccc13)CCC2"
reported_measurement = "78 % of control"

[[record]]
query_smiles = "CN(C)c1cc2cc(n1)CCCn1cc(c3ccccc31)C1=C(C(=O)NC1=O)c1cn(c3ccccc13)CCC2"
reported_measurement = "98 % of control"


---

Reported Activity at Protein Kinase Assays (% of control), IKKα(h) is given for each of the following compounds.
# TGT: IKKα(h) (Homo sapiens)
# Sequence (O15111 whole entry): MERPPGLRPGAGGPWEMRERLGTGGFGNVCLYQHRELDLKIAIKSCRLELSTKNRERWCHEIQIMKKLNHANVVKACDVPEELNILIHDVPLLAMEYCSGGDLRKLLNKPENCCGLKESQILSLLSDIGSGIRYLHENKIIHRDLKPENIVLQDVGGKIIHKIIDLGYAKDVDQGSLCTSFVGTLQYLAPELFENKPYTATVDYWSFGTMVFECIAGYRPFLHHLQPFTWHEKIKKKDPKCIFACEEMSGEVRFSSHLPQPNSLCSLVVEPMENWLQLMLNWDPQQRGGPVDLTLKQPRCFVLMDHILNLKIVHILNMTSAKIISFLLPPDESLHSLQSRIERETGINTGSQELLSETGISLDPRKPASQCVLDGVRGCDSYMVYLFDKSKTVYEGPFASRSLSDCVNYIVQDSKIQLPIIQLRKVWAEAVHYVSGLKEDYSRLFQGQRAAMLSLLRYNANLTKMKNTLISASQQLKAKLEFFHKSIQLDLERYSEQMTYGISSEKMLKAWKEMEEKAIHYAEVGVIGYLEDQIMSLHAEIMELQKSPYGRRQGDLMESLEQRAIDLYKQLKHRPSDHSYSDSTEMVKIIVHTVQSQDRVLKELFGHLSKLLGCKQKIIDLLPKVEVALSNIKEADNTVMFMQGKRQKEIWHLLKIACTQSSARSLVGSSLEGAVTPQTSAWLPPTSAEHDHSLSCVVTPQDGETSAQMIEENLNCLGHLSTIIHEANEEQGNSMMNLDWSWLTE
# MEASUREMENT NOTES: Protein kinase selectivity panel
# Assay type: biochemical
# EXPERIMENTAL CONDITIONS: 1.0 μM compound, 10 μM ATP
MEASUREMENT LABEL: Activity at Protein Kinase Assays (% of control), IKKα(h)

[[record]]
query_smiles = "O=C1NC(=O)C2=C1c1cn(c3ccccc13)CCCc1ccc(c(N3CCCC3)n1)CCCn1cc2c2ccccc21"
tgt = "IKKα(h) (Homo sapiens)"
reported_measurement = "121 % of control"

[[record]]
query_smiles = "CN(C)c1nc2ccc1CCCCn1cc(c3ccccc31)C1=C(C(=O)NC1=O)c1cn(c3ccccc13)CCC2"
tgt = "IKKα(h) (Homo sapiens)"
reported_measurement = "92 % of control"

[[record]]
query_smiles = "O=C1NC(=O)C2=C1c1cn(c3ccccc13)CCCc1cc(nc(N3CCCC3)c1)CCCn1cc2c2ccccc21"
tgt = "IKKα(h) (Homo sapiens)"
reported_measurement = "132 % of control"

[[record]]
query_smiles = "CN(C)c1cc2cc(n1)CCCn1cc(c3ccccc31)C1=C(C(=O)NC1=O)c1cn(c3ccccc13)CCC2"
tgt = "IKKα(h) (Homo sapiens)"
reported_measurement = "133 % of control"

